# Tested on: MDA-MB-435 melanoma
# ASSAY: NCI-60 one-dose screen, 48 h (100 = growth as untreated, 0 = no growth, -100 = all killed)
# CONDITIONS_USED: 10 µM unless noted
The panel holds about 83,000 compounds, 20% with a hit somewhere; the sample as a whole holds those more often.
Record form. Attribute: growth. Fill in for each entry.
Numbers only, in %.

Solved cases below.
COMPOUND	MEASURED_NUMBER
COC(=O)/C=C/c1cc(OC(C)=O)c2c(c1)[C@@H](C(=O)OC)[C@H](c1ccc(OC(C)=O)c(OC(C)=O)c1)O2	-64.8
CC1=NC(c2ccc(Cl)cc2)C2=C(N1)/C(=C/c1ccc(Cl)cc1)CCC2 (stereo unspecified)	22.4
COc1cc(C2Nc3ccccc3S2)cc(CN2CCOCC2)c1O (stereo unspecified)	0.594
COC(=O)c1cc(Cl)cc([N+](=O)[O-])c1O	99.3
CCSc1ccc([C@@H]2[C@@H](O)C(=O)N2c2cc(OC)c(OC)c(OC)c2)cc1	-32.4
OC(c1cc2c(Cl)cc(Cl)cc2c2cc(C(F)(F)F)ccc12)C1CCCCN1 (stereo unspecified)	-65.5

Okay, here is my list. What is growth for each of these?
1. CC1C2CCC(C2)C1COCCOCCO (stereo unspecified)
2. COc1ccc(C(=O)c2c(N)nc3n2CCCC3)cc1OC

Found:
110
104

Respectfully, I request growth for each entry included below.
1. O=C(NO)c1ccc(NCc2csc3ccccc23)cc1
2. [O-]/[N+](=C\c1ccccc1)CC1(O)CCCCC1
3. NS(=O)(=O)c1ccc(N2N=C(c3cccs3)CC2c2ccccc2O)cc1 (stereo unspecified)
4. C#CC[C@@H]1C[C@]2(C)[C@H]3CC[C@@H]4[C@H]5C(C(=C)C)CC[C@]5(C(=O)NCCN(CCN)CCN)CC[C@@]4(C)[C@]3(C)CC[C@H]2C(C)(C)[C@H]1OC(C)=O (stereo partly specified)
5. O=C(Nc1ccc(Oc2ccc(Nc3nc4ccccc4s3)cc2)cc1)Nc1ccc(Cl)c(C(F)(F)F)c1
6. Cn1nc(C(F)(F)F)cc1-c1c[nH]c(OCc2ccc(Cl)cc2)c(-c2ccc(Cl)c(C(F)(F)F)c2)c1=O
7. O=Cc1ccc2nc(C(Cl)(Cl)Cl)ccc2c1
8. COCCOCCOCc1n(Cc2ccc3ccccc3n2)c2ccccc2[n+]1Cc1ccc2ccccc2c1

Found:
1: 82.4; 2: 100; 3: -41.1; 4: 84.8; 5: 0.432; 6: 1.96; 7: 99.6; 8: -21.9

* * *

# Tested on: EKVX NSCLC
# ASSAY: NCI-60 one-dose screen, 48 h
# CONDITIONS_USED: 10 µM unless noted
Compounds without any hit were thinned out: in the full panel of roughly 83,000, 20% have a hit. Calls of active or inactive are those of the source. Rule for the calls: active = growth percent below 10; inactive = the rest.
Permitted responses: label 1 for active, label 0 for inactive

Observe how each entry below is paired with its result.
COMPOUND	LABEL_CLASS
O=C(O)Cn1ccc2ccccc21	label 0
CCCc1n(Cc2ccc3ccccc3n2)cc[n+]1Cc1ccc2ccccc2n1	label 0
CCCCNCCC(O)c1cc2ccc(C(F)(F)F)cc2c2cc(C(F)(F)F)ccc12 (stereo unspecified)	label 1
c1ccc2c(c1)cnc1ccccc12	label 0

Lookup: Can you look up the reported call for O=C(/C=C/c1cc([N+](=O)[O-])ccc1Cl)c1ccccc1 for me?
Found: label 0

Lookup: What was the test verdict on CCN(CC)CCCNc1cccc2c(C)cc(OC)nc12 ?
Found: label 0
